Test system: crabgrass (Digitaria sanguinalis)
ASSAY: Test C pre/postemergence
Assay type: in vivo
MEASUREMENT_CONTEXT: Preemergence, 62 g ai/ha; scale 0 to 100, 0 no effect, 100 complete control
VALUE_TYPE: Plant response rating, Crabgrass
The reply should be a number, written without any unit.

| COMPOUND | STUDY_SYSTEM | Plant response rating, Crabgrass |
| --- | --- | --- |
| Nc1nc(C2CC2)nc(C=NO)c1Br | crabgrass (Digitaria sanguinalis) | 0 |
| CCOC(=O)Cc1nc(C2CC2)nc(N=CN(C)C)c1Br | crabgrass (Digitaria sanguinalis) | 0 |
| CCOC(=O)C(OC(C)=O)c1nc(C2CC2)nc(N)c1Br (stereo not drawn) | crabgrass (Digitaria sanguinalis) | 100 |
| CCCOC(=O)c1nc(C2CC2)nc(N)c1Br | crabgrass (Digitaria sanguinalis) | 0 |
| COC(=O)CNc1nc(C2CC2)nc(C(=O)OC)c1Br | crabgrass (Digitaria sanguinalis) | 0 |

Next compound, Plant response rating, Crabgrass to be filled in.
-- ask Requested field: Plant response rating, Crabgrass. Item: CN(C)N=Cc1nc(C2CC2)nc(N)c1Br
-- reply 90

---

System: umbrella sedge (Cyperus difformis)
ASSAY: Test C flooded paddy test
Assay type: in vivo
MEASUREMENT_CONTEXT: Flood, 125 g ai/ha; scale 0 to 100
VALUE_TYPE: Plant response rating, Sedge, Umbrella
The reply should be a number, written without any unit.

Sample answers from the record:
| CHEMICAL_SMILES | STUDY_SYSTEM | VALUE_REPORTED |
| --- | --- | --- |
| COC(=O)c1nc(C2CC2)nc(N)c1Cl | umbrella sedge (Cyperus difformis) | 15 |
| CC(C)COC(=O)c1nc(C2CC2)nc(N)c1Br | umbrella sedge (Cyperus difformis) | 0 |
| CCOC(=O)c1nc(-c2ccc(Cl)cc2)nc(N)c1Br | umbrella sedge (Cyperus difformis) | 85 |

Next compound, Plant response rating, Sedge, Umbrella to be filled in.
-- ask Requested field: Plant response rating, Sedge, Umbrella. Item: CCOC(=O)c1nc(C2CC2)nc(N)c1Cl
-- reply 30

---

Tested on: giant foxtail (Setaria faberii)
ASSAY: Test C pre/postemergence
Assay type: in vivo
MEASUREMENT_CONTEXT: Postemergence, 125 g ai/ha; scale 0 to 100 (0 no effect, 100 complete control)
Hi, to clarify the labels: Met covers Foxtail, Giant plant response rating from 60 upward, Not met covers anything below 60.

-- ask Reported Foxtail, Giant plant response rating reaches at least 60 for Nc1nc(-c2ccc(Cl)cc2)nc(C(=O)[O-])c1Cl.[Na+] [Compound 117] ?
-- reply Met

-- ask Reported Foxtail, Giant plant response rating reaches at least 60 for Nc1nc(-c2ccc(Br)cc2)nc(C(=O)O)c1Br [Compound 136] ?
-- reply Met

---

System: cocklebur (Xanthium strumarium)
ASSAY: Test B pre/postemergence
Type: in vivo
MEASUREMENT_CONTEXT: Xanthium strumarium, pre-emergence, Preemergence, 62 g ai/ha; scale 0 to 100, 0 no effect, 100 complete control; read-out: Plant response rating, Cocklebur
VALUE_TYPE: pest or weed control at 62 g/ha
Give the value; after it, write the unit.

Sample answers from the record:
| MOLECULE | VALUE_TYPE | VALUE_REPORTED |
| --- | --- | --- |
| Nc1nc(C2CC2)nc(C(=O)[O-])c1Br.[Na+] [Compound 113, monosodium salt] | pest or weed control at 62 g/ha | 70% |
| Nc1nc(-c2ccc(Cl)cc2)nc(C(=O)O)c1Cl | pest or weed control at 62 g/ha | 80% |
| CCOC(=O)c1nc(C2CC2)nc(N)c1Cl | pest or weed control at 62 g/ha | 80% |

Next molecule, pest or weed control at 62 g/ha to be filled in.
-- ask Requested field: pest or weed control at 62 g/ha. Item: CCOC(=O)c1nc(C2CC2)nc(N)c1Br
-- reply 90%

---

Tested on: duck salad (Heteranthera limosa)
ASSAY: Test B flooded paddy test
Type: in vivo
MEASUREMENT_CONTEXT: Heteranthera limosa, Flood, 1000 g ai/ha; scale 0 to 100; read-out: Plant response rating, Ducksalad
VALUE_TYPE: pest or weed control at 1000 g/ha (%)
I only need the number, in %, no unit after it.

| CHEMICAL_SMILES | STUDY_SYSTEM | pest or weed control at 1000 g/ha / % |
| --- | --- | --- |
| CCOC(=O)c1nc(C2CC2)nc(N)c1F | duck salad (Heteranthera limosa) | 0 |
| COC(=O)c1nc(C2CC2)nc(N)c1Br | duck salad (Heteranthera limosa) | 90 |
| COC(=O)c1nc(C(C)C)nc(N)c1Br | duck salad (Heteranthera limosa) | 0 |
| CCOC(=O)c1nc(C2CC2)nc(NN)c1Br | duck salad (Heteranthera limosa) | 0 |

-- ask Please provide the recorded pest or weed control at 1000 g/ha for Nc1nc(C2CC2)nc(C=O)c1F , tested on duck salad (Heteranthera limosa).
-- reply 0

---

Tested on: woolly cupgrass (Eriochloa villosa)
ASSAY: Test C pre/postemergence
Type: in vivo
MEASUREMENT_CONTEXT: Eriochloa villosa, pre-emergence; Preemergence, 125 g ai/ha; scale 0 to 100; read-out: Plant response rating, Cupgrass, Woolly
VALUE_TYPE: pest or weed control at 125 g/ha (%)
I only need the number, in %, no unit after it.

Sample answers from the record:
| MOLECULE | READOUT_UNITS | pest or weed control at 125 g/ha |
| --- | --- | --- |
| CCOC(=O)c1nc(-c2ccc(Cl)cc2)nc(N)c1Cl | % | 0 |
| Nc1nc(C2CC2)nc(C=O)c1Br | % | 0 |
| Nc1nc(C2CC2)nc(C(=O)OCc2ccccc2)c1Cl | % | 10 |

-- ask Please provide the recorded pest or weed control at 125 g/ha for CNc1nc(C2CC2)nc(C(=O)OC)c1Br , tested on woolly cupgrass (Eriochloa villosa).
-- reply 0

-- ask Please provide the recorded pest or weed control at 125 g/ha for Nc1nc(C2CC2)nc(C(=O)[O-])c1Cl.[Na+] [Compound 77, monosodium salt] , tested on woolly cupgrass (Eriochloa villosa).
-- reply 0

-- ask Please provide the recorded pest or weed control at 125 g/ha for COC(=O)c1nc(C2CC2)nc(N)c1Cl , tested on woolly cupgrass (Eriochloa villosa).
-- reply 95

-- ask Please provide the recorded pest or weed control at 125 g/ha for COC(=O)c1nc(C2CC2)nc(N)c1Br , tested on woolly cupgrass (Eriochloa villosa).
-- reply 0

---

System: lambsquarters (Chenopodium album)
ASSAY: Test B pre/postemergence
Type: in vivo
MEASUREMENT_CONTEXT: Chenopodium album, post-emergence, Postemergence, 125 g ai/ha; scale 0 to 100 (0 no effect, 100 complete control); read-out: Lambsquarters plant response rating
VALUE_TYPE: pest or weed control at 125 g/ha (%)
I only need the number, in %, no unit after it.

| MOLECULE | READOUT_UNITS | pest or weed control at 125 g/ha |
| --- | --- | --- |
| Nc1nc(C2CC2)nc(C(=O)OCc2ccccc2)c1Br [Compound 22] | % | 100 |
| Nc1nc(C2CC2)nc(C=O)c1F [Compound 24] | % | 70 |
| Nc1nc(C2CC2)nc(C(=O)O)c1Br [Compound 8] | % | 100 |
| COC(=O)c1nc(C2CC2)nc(NO)c1Br [Compound 35] | % | 90 |
| CCOC(=O)c1nc(C2CC2)nc(N)c1F [Compound 30] | % | 90 |
| CCOC(=O)c1nc(C(C)(C)C)nc(N)c1Br [Compound 36] | % | 40 |
| COC(=O)c1nc(C2CC2)nc(N)c1I [Compound 7] | % | 80 |
| Nc1nc(C2CC2)nc(C(=O)OCc2ccccc2)c1Cl [Compound 78] | % | 100 |

Next molecule, pest or weed control at 125 g/ha to be filled in.
-- ask Requested field: pest or weed control at 125 g/ha. Item: COC(=O)c1nc(-c2ccccc2)nc(N)c1Br [Compound 23]
-- reply 70

---

Tested on: velvetleaf (Abutilon theophrasti)
ASSAY: Test A pre/postemergence
Type: in vivo
MEASUREMENT_CONTEXT: Postemergence, 125 g ai/ha; 0 to 100 scale (0 no effect, 100 complete control)
VALUE_TYPE: Plant response rating, Velvetleaf
The reply should be a number, written without any unit.

| CHEMICAL_SMILES | VALUE_REPORTED |
| --- | --- |
| CC(C)=NOC(=O)c1nc(C2CC2)nc(N)c1Cl | 85 |
| CCOC(=O)c1nc(-c2ccc(Cl)c(Cl)c2)nc(N)c1Br | 50 |
| CCOC(=O)c1nc(-c2ccc(Cl)cc2)nc(N)c1I | 45 |
| CCOC(OCC)c1nc(-c2ccc(I)cc2)nc(N)c1Cl | 60 |

Next compound, Plant response rating, Velvetleaf to be filled in.
-- ask Requested field: Plant response rating, Velvetleaf. Item: CCOC(=O)c1nc(-c2ccc(Cl)cc2Cl)nc(N)c1Br
-- reply 65
